Where do the numbers come from? From PubChem BioAssay AID488969.

# systemName: Metabotropic glutamate receptor 8 (Rattus norvegicus) (UniProt P70579)
# Sequence (P70579 whole entry, looked up): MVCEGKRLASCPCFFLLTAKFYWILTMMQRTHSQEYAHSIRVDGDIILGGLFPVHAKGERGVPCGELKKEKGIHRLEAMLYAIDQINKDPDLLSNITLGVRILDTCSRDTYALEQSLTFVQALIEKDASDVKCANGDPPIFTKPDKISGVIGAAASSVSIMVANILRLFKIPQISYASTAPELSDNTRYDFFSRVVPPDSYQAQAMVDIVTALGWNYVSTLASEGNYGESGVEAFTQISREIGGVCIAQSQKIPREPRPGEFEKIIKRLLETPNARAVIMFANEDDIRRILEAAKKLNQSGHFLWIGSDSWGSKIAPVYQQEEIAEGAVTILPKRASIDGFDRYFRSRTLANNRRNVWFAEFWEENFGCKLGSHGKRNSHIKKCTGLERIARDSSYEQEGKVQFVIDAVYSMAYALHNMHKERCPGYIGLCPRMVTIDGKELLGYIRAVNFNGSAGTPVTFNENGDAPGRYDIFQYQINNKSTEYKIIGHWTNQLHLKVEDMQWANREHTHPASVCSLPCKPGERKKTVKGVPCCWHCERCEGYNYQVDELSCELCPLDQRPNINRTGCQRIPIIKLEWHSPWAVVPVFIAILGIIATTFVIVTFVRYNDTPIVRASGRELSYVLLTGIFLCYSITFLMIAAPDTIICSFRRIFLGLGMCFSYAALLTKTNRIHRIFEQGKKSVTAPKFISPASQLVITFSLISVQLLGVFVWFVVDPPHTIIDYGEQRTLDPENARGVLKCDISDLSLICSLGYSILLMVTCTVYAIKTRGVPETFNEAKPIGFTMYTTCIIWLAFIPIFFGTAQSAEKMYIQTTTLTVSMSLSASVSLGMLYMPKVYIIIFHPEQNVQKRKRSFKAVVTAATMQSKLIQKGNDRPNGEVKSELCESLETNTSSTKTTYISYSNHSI
# experimentalDetails: mGluR8 Gi/Go-coupled signaling modulation – cell-based, rat, thallium flux, HTS, primary screen (AID 488969)
# conditionNotes: HEK293 rat mGluR8, GIRK thallium flux, FluoZin2; at 10 µM; stronger effect = higher value; submaximal glutamate (EC20) added with thallium
In all, about 110,000 compounds were measured (“z-score”: median about -0.1, highest 2% from about 2 on). Shown is part of a subset that was picked to be rich in the highest values.
readoutLabel: z-score

{"columns": ["compound", "systemName", "readoutLabel", "resultValue"],
 "data": [
  ["COC(=O)c1sccc1NC(=O)CSc1ccccc1NS(=O)(=O)c1ccccc1Cl", "Metabotropic glutamate receptor 8 (Rattus norvegicus) (UniProt P70579)", "z-score", 3.17],
  ["CCC(=O)Nc1cccc(NC(=S)NC(=O)c2ccccc2)c1", "Metabotropic glutamate receptor 8 (Rattus norvegicus) (UniProt P70579)", "z-score", -0.455],
  ["COC(=O)c1sccc1NC(=O)CSc1cc(Cl)ccc1Cl", "Metabotropic glutamate receptor 8 (Rattus norvegicus) (UniProt P70579)", "z-score", -0.165],
  ["CC1CC(C)CN(Cc2nc(N)nc(Nc3ccc4ccccc4c3)n2)C1 (stereo not drawn)", "Metabotropic glutamate receptor 8 (Rattus norvegicus) (UniProt P70579)", "z-score", 3.66],
  ["CC(=O)c1cccc(NC(=S)NC(=O)c2ccccc2)c1", "Metabotropic glutamate receptor 8 (Rattus norvegicus) (UniProt P70579)", "z-score", 1.63],
  ["Cc1cs/c(=N\\N=C\\c2ccccc2)n1Cc1ccco1", "Metabotropic glutamate receptor 8 (Rattus norvegicus) (UniProt P70579)", "z-score", -0.431],
  ["COC(=O)c1oc2ccc(Br)cc2c1NC(=O)CN1CCN(C)CC1", "Metabotropic glutamate receptor 8 (Rattus norvegicus) (UniProt P70579)", "z-score", 2.22],
  ["CC(NC(=O)c1ccc(F)cc1)c1nc2ccccc2n1Cc1ccccc1F (stereo not drawn)", "Metabotropic glutamate receptor 8 (Rattus norvegicus) (UniProt P70579)", "z-score", -0.254],
  ["CC(=O)c1cccc(NC(=S)NC(=O)c2cccc(C)c2)c1", "Metabotropic glutamate receptor 8 (Rattus norvegicus) (UniProt P70579)", "z-score", 7.49],
  ["COc1ccccc1Nc1nc(N)nc(CN2CCC(Cc3ccccc3)CC2)n1", "Metabotropic glutamate receptor 8 (Rattus norvegicus) (UniProt P70579)", "z-score", 0.165],
  ["CCC(=O)Nc1cccc(NC(=S)NC(=O)c2cccc(C)c2)c1", "Metabotropic glutamate receptor 8 (Rattus norvegicus) (UniProt P70579)", "z-score", 0.23],
  ["CC(=O)c1cccc(NC(=S)NC(=O)c2cccc(Cl)c2)c1", "Metabotropic glutamate receptor 8 (Rattus norvegicus) (UniProt P70579)", "z-score", 8.71],
  ["CC1CC(C)CN(Cc2nc(N)nc(Nc3ccccc3)n2)C1 (stereo not drawn)", "Metabotropic glutamate receptor 8 (Rattus norvegicus) (UniProt P70579)", "z-score", 0.639]
]}

====

# systemName: Metabotropic glutamate receptor 8 (Rattus norvegicus)
# experimentalDetails: mGluR8 Gi/Go-coupled signaling modulation – cell-based, rat, thallium flux, HTS, primary screen (AID 488969)
# conditionNotes: HEK293 rat mGluR8, GIRK (G protein-gated inwardly rectifying potassium channel) thallium flux, FluoZin2; at 10 µM; stronger effect = higher value; submaximal glutamate (EC20) added with thallium
The full ranking holds about 110,000 compounds; the median of “z-score” is about -0.1, and the highest 2% start at about 2. For the sample, the highest values were picked, then their nearest neighbours and some compounds at random.
Listed below: z-score values for each entry.

{"columns": ["molecule", "z-score"],
 "data": [
  ["Cc1cc(C)c(C(=O)CSc2nnc(-c3cccnc3)n2C)c(C)c1", 0.116],
  ["CC(=O)N(Cc1ccc(F)cc1)C1=C(NCCc2ccccc2)C(=O)c2ccccc2C1=O", "1.71e-05"],
  ["O=C(Nc1ccc(F)cc1F)c1ccco1", -0.0416],
  ["FC(F)(F)COc1nc(N2CCCCC2)nc(N2CCNCC2)n1", 2.6],
  ["CCCNC1=C(N(C(C)=O)c2cccc(F)c2)C(=O)c2ccccc2C1=O", -1.55],
  ["Cc1nnc(SCC(=O)Nc2ccc3c(c2)OCCO3)s1", 0.669],
  ["O=C(Nc1cc(Cl)ccc1N1CCCCC1)c1cccs1", -0.311],
  ["O=S(=O)(Nc1ccc(N2CCOCC2)cc1)c1ccc(Cl)s1", -0.104],
  ["CCOC(=O)N1CCN(CC(O)COCc2ccc(OC)c(OC)c2)CC1 (configuration not stated)", 0.0416],
  ["CCOC(=O)C1=C(CC)Nc2ccccc2N=C1NC(=O)c1cc(S(=O)(=O)N(C)C)ccc1Cl", 0.243],
  ["O=C(NN=C(Cc1ccccc1)Cc1ccccc1)c1ccc(F)cc1", 4.71],
  ["O=C1OCCC1Sc1nnc(-c2ccccc2)o1 (configuration not stated)", -0.134]
]}
